molecular target: N-type Ca^2+ Channel (Homo sapiens, UniProt Q00975); construct: host or cells: IMR-32 cells differentiated with dibutyryl cAMP and bromodeoxyuridine; test: Measurement of N-type Ca2+ channel blocking potencies in IMR-32 cells using the fluorescent Ca2+ indicator Indo-1; format: cell-based; settings: IMR-32 cells, K+ depolarization, 5 μM nitrendipine to block L-type channels; read-out: IMR 32 IC50
Sequence (Q00975 whole entry): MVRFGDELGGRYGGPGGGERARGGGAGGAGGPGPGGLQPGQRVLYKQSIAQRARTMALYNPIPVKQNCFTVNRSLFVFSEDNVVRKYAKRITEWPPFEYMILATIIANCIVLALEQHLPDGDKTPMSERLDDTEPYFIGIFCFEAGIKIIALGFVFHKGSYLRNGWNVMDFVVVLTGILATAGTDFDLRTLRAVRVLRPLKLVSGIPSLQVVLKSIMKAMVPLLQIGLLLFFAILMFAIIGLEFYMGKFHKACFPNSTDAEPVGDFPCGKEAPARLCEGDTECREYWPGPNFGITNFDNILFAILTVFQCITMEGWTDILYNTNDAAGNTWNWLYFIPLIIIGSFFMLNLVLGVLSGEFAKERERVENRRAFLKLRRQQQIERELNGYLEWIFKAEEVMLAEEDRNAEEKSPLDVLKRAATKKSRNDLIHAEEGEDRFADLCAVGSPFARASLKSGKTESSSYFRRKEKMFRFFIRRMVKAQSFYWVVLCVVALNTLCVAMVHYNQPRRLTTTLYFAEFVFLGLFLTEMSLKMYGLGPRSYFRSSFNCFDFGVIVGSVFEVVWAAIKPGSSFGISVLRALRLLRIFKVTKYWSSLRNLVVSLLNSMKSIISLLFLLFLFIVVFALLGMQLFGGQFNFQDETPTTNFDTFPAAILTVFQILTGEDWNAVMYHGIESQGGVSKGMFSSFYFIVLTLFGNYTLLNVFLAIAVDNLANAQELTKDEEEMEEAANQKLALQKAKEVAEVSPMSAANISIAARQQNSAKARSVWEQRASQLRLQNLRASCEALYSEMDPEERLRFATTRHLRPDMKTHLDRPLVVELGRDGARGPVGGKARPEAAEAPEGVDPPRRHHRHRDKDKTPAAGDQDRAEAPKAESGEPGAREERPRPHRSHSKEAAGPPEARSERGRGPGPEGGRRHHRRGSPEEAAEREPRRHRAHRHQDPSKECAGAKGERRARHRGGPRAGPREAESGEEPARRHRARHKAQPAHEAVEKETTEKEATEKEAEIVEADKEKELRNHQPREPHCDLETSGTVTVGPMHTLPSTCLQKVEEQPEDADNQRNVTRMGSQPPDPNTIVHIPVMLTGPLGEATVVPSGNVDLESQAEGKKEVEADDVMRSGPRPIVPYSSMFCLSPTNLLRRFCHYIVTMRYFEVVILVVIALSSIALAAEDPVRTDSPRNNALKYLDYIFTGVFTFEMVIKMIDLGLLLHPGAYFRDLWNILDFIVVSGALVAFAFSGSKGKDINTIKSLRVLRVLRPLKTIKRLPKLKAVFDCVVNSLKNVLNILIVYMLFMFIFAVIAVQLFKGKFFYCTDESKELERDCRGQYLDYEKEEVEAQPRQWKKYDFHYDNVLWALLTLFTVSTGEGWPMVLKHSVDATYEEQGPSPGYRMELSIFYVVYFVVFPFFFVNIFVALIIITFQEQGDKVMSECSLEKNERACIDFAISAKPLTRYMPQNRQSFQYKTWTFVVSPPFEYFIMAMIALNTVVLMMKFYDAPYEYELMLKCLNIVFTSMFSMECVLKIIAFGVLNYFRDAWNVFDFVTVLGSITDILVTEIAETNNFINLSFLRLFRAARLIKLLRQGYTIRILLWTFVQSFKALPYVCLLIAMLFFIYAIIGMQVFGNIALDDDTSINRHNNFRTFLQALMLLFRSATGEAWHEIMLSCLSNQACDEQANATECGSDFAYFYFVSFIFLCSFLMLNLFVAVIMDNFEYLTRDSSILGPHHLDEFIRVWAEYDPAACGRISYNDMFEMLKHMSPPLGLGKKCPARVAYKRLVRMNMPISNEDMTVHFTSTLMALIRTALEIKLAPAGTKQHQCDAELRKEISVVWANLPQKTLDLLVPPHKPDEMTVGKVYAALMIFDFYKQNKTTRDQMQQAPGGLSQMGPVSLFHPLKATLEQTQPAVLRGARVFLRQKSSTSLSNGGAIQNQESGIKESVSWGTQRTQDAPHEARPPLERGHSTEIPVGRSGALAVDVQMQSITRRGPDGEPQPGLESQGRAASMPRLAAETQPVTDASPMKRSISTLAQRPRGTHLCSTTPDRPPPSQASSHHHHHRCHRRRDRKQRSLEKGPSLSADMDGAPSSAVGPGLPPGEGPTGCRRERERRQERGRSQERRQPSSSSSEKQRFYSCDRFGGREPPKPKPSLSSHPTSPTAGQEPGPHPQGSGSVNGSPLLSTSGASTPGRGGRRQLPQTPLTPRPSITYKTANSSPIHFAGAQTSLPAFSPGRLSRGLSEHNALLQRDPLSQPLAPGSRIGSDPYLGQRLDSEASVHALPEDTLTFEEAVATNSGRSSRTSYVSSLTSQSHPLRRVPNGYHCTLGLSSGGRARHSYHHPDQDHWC
Sequence (P54284 whole entry partner): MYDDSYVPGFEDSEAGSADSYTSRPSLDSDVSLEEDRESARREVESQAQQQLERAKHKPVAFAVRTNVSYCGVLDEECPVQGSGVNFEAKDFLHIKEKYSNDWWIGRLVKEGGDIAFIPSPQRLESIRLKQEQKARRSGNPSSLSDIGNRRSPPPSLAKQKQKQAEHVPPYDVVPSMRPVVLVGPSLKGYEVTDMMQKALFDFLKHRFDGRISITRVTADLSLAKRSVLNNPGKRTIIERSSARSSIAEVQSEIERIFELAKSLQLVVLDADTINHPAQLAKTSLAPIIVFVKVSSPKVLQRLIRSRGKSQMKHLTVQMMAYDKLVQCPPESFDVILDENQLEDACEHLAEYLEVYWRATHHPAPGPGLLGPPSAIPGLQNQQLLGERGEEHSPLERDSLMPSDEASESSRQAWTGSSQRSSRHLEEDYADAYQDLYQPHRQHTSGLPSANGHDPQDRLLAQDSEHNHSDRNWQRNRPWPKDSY
Sequence (P54289 25-946 partner limits assumed): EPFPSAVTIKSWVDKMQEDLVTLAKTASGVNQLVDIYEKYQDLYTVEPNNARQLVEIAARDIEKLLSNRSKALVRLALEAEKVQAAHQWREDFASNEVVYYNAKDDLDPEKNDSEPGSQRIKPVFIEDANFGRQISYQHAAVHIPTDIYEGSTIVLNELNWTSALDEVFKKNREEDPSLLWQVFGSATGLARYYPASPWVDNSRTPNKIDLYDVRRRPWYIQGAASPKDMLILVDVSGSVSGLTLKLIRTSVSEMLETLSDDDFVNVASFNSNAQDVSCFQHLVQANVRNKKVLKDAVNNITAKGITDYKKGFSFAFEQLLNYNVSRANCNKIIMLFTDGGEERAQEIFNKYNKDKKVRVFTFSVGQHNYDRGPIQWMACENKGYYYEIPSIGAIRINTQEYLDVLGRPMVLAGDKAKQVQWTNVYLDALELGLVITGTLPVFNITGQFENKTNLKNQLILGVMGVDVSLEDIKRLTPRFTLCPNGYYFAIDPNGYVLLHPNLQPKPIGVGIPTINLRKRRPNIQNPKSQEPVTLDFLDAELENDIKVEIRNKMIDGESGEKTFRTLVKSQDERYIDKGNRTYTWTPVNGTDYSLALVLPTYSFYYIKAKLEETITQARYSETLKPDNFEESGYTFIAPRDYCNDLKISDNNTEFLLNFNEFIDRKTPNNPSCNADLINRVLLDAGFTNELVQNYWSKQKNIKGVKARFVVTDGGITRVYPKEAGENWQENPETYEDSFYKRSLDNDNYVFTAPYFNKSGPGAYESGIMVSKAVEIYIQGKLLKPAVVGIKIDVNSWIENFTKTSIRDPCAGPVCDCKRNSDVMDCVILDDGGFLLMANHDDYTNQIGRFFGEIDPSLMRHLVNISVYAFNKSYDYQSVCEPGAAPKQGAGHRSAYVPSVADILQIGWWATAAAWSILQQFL
Sequence (P54289 947-1103 partner limits assumed): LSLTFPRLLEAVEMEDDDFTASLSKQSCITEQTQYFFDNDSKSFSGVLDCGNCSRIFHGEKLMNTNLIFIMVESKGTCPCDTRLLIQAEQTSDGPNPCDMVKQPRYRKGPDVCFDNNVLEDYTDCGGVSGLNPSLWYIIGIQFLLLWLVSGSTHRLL
metric: log10 IC50 (log10 of the value in nM)
Note: values are log10 of IC50 expressed in nM.

compound: CC(C)CCN(C)[C@@H](CC(C)C)C(=O)NC(Cc1ccc(OCc2ccccc2)cc1)C(=O)NCCNCc1ccccc1 (stereo in doubt)
log10 IC50: 2.30

compound: CC(C)C[C@@H](C(=O)N[C@@H](Cc1ccc(OCc2ccccc2)cc1)C(=O)NC(C)(C)C)N(C)Cc1ccncc1 (relative stereo)
log10 IC50: 3.11

compound: CC(C)C[C@@H](C(=O)N[C@@H](Cc1ccc(OCc2ccccc2)cc1)C(=O)NC(C)(C)C)N(C)C1CCOCC1 (relative stereo)
log10 IC50: 3.49

// query Name the reported log10 IC50 value associated with the compound CC(C)C[C@@H](C(=O)N[C@@H](Cc1ccc(OCc2ccccc2)cc1)C(=O)NC1CCN(Cc2ccccc2)CC1)N(C)Cc1ccc(C(C)(C)C)cc1 (relative stereo)
// result 2.64

// query Name the reported log10 IC50 value associated with the compound CC(C)CC(NC(C)C)C(=O)NC(Cc1ccc(OCc2ccccc2)cc1)C(=O)OC(C)(C)C (stereo not drawn)
// result 2.90

// query Name the reported log10 IC50 value associated with the compound CC(C)C[C@@H](C(=O)N[C@@H](Cc1ccc(OCc2ccccc2)cc1)C(=O)NCCN1CCCCC1)N(C)CC1CCCCC1 (relative stereo)
// result 3.11

// query Name the reported log10 IC50 value associated with the compound CC(C)C[C@H](NCc1ccc(C(C)(C)C)cc1)C(=O)N[C@@H](Cc1ccc(OCc2ccccc2)cc1)C(=O)OC(C)(C)C (relative stereo)
// result 2.40

Where these numbers come from: patent US6117841A
